Test system: mIMCD
TEST SUMMARY: ADC cytotoxicity in normal cell lines, MTT assay
APPLIED CONDITIONS: read-out: IC50 / cytotoxicity, MTT (FIG. 32), NS = not significantly different from 100% viability of control
ENDPOINT NAME: IC50

Identify measured IC50 obtained with mIMCD for "COc1cc2cc(c1Cl)N(C)C(=O)C[C@H](OC(=O)[C@H](C)N(C)C(=O)CCS)[C@]1(C)O[C@H]1[C@H](C)[C@@H]1C[C@@](O)(NC(=O)O1)[C@H](OC)/C=C/C=C(\C)C2" . 3 nM

----------
System: KV2 cells
TEST SUMMARY: ADC cytotoxicity in normal cell lines, MTT assay
APPLIED CONDITIONS: read-out: IC50 / cytotoxicity; KV-2, MTT, 72 hours (FIG. 31-32); NS = not significantly different from 100% viability of control
ENDPOINT NAME: IC50
# answer = value followed by unit

Read the entry "COc1cc2cc(c1Cl)N(C)C(=O)C[C@H](OC(=O)[C@H](C)N(C)C(=O)CCS)[C@]1(C)O[C@H]1[C@H](C)[C@@H]1C[C@@](O)(NC(=O)O1)[C@H](OC)/C=C/C=C(\C)C2" and write its reported IC50. 95.5 nM
